Target Entity: 11-beta-hydroxysteroid dehydrogenase 1 (Homo sapiens, UniProt P28845)
Sequence (P28845 whole entry): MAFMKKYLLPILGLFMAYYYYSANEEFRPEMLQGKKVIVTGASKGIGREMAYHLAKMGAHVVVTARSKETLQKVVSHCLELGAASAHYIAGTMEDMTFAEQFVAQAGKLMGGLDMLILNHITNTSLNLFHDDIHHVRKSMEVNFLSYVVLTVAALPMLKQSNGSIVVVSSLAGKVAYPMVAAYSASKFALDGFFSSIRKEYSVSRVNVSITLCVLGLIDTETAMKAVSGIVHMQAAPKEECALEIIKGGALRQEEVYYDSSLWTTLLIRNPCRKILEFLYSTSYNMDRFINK
Assay Method Text: Inhibition of human microsomal 11beta-HSD1 overexpressed in HEK293 cells using [3H]-cortisone as substrate assessed as formation of [3H]-cortisol by scintillation proximity assay in presence of NADPH
pIC50: −log10 of the molar value.
Metric: pIC50

CC(C)(O)[C@@H](O)[C@H]1C[C@@H]([C@@H]2CC[C@]3(C)C4=CC[C@H]5C(C)(C)[C@@H](O)CC[C@]5(C)[C@H]4CC[C@@]23C)C(=O)O1 | 5.49

A. CCC(C)C(=O)O[C@@H]1C[C@H]2C(C)(C)C(=O)C=C[C@]2(C)[C@H]2[C@@H](OC(C)=O)C[C@]3(C)C(=CC(=O)[C@H]3c3ccoc3)[C@@]21C (relative stereo)
B. CC(C)=CC(=O)[C@@H](O)[C@H](C)[C@@H]1CC[C@]2(C)C3=CC[C@H]4C(C)(C)[C@@H](O)CC[C@]4(C)[C@H]3C[C@@H](O)[C@@]12C
(Q) Looking at recorded values for pIC50, does A or B come in lower? Kindly give the label for the entry you pick.
(A) A
